Values were extracted from paper PMC12344719.

# protocol_details: in vitro
# recorded_conditions: African green monkey (Cercopithecus aethiops)

item_smiles | CC50 / µM
C=CCNC(=O)c1csc(-c2ccc(OCCC)cc2F)n1 | 19.4
CN(CCCCCc1cc(-c2cccc(F)c2)n[nH]1)C(=O)C(C)(C)C | 47.1
COc1ccccc1OCCCOc1ccc([N+](=O)[O-])cc1Cl | 20.6

----------
Items are presented alongside their recorded log10(CC20).
# Test system: Vero cells
# recorded_conditions: African green monkey (Cercopithecus aethiops), 72 h
endpoint_name: log10(CC20) (log10 of the value in µM)

item_smiles | target_or_system | data_value
Cc1cccc(C)c1NC(=O)CCCSCc1cccc(S(=O)(=O)N(C)C)c1 | Vero cells | 0.55
CC(=O)c1[nH]c(C)c(C(=O)N(C)CCCOc2cccc(Cl)c2)c1C | Vero cells | 0.88
COc1cccc(SCC(=O)N(Cc2ccccn2)C2CCCCC2)c1 | Vero cells | 0.44
CCS(=O)(=O)N(C)c1ccc2sc(C(=O)NCCC3=CCCCC3)cc2c1 | Vero cells | 0.35
CCOc1ccc2nc(C(=O)CCC(=O)OC(CCl)CCl)sc2c1 | Vero cells | 1.47
